Organism: Homo sapiens
assay summary: Binding affinity to r(GACAGCCUGCUGUC)2 duplex (unknown origin) assessed as positive phase signal at 300 uM by waterLOGSY NMR spectroscopy
The source made the active and inactive calls. The calls are words filed in the database; no cut-off is given here.
Possible outcomes: active, inactive

compound	assigned class
CC(=O)Nc1ccc(Nc2nc(NCC3CCCO3)c3ccccc3n2)cc1 (configuration not stated)	active
OCCCNc1nc(Nc2ccc3c(c2)OCCO3)nc2ccccc12	active
CCNc1nc(Nc2ccc(NC(C)=O)cc2)nc2ccccc12	inactive
CN(C)c1nc(Nc2ccc(C(N)=O)cc2)nc2ccccc12	inactive
CC(=O)Nc1ccc(Nc2nc(N3CCCC3)c3ccccc3n2)cc1	inactive
COc1ccc(Nc2nc(NCCCO)c3ccccc3n2)cc1	active
CN(C)c1ccc(Nc2nc(NCCCO)c3ccccc3n2)cc1	active

###

assay summary: Binding affinity to Base-paired RNA (unknown origin) assessed as dissociation constant incubated for 30 mins by microscale thermophoresis
Design: species or system Homo sapiens

smiles str	Kd
Cc1ccc2nc(Nc3ccc4nc(C)sc4c3)nc(NCCCO)c2c1	> 20 µM
